The origin of these recorded values is patent US6734190B2.

Target: B7-1/CD28 (Homo sapiens, UniProt P33681)
Test: CD28/B7-1 ELISA (B7-1/CD28 binding inhibition)
Settings: CD28-Fc coated wells; B7-1-Fc-biotin/streptavidin-alkaline phosphatase detection complex; 1% DMSO
recordedMetric: pIC50
pIC50 here is simply -log10 of the concentration when that concentration is written in mol/L.

-- ask Field: pIC50 (B7-1/CD28 (Homo sapiens, UniProt P33681)). Entry: CC(O)c1cccc(NC(=O)c2cc(-n3[nH]c4c(c(-c5cccc(C(F)(F)F)c5)nc5c4cnn5C)c3=O)ccc2F)c1 (stereo not shown)
-- reply 6.00

-- ask Field: pIC50 (B7-1/CD28 (Homo sapiens, UniProt P33681)). Entry: Cn1ncc2c3[nH]n(-c4cccc(C(=O)N5CCSCC5)c4)c(=O)c3c(-c3cccc(C(F)(F)F)c3)nc21
-- reply 7.15

-- ask Field: pIC50 (B7-1/CD28 (Homo sapiens, UniProt P33681)). Entry: Cn1ncc2c3[nH]n(-c4ccc(F)c(C(=O)Nc5ccc(CCO)cc5)c4)c(=O)c3c(-c3cccc(C(F)(F)F)c3)nc21
-- reply 6.42

-- ask Field: pIC50 (B7-1/CD28 (Homo sapiens, UniProt P33681)). Entry: Cn1ncc2c3[nH]n(-c4ccc(S(=O)(=O)NCCCCCO)cc4)c(=O)c3c(-c3cccc(C(F)(F)F)c3)nc21
-- reply 6.17

-- ask Field: pIC50 (B7-1/CD28 (Homo sapiens, UniProt P33681)). Entry: Cn1ncc2c3[nH]n(-c4ccc(C(=O)N5CCCC5)cc4)c(=O)c3c(-c3cccc(C(F)(F)F)c3)nc21
-- reply 6.96

-- ask Field: pIC50 (B7-1/CD28 (Homo sapiens, UniProt P33681)). Entry: Cn1ncc2c3[nH]n(-c4cccc(C(=O)Nc5ccc(O)cc5)c4)c(=O)c3c(-c3cccc(C(F)(F)F)c3)nc21
-- reply 7.42

-- ask Field: pIC50 (B7-1/CD28 (Homo sapiens, UniProt P33681)). Entry: Cn1ncc2c3[nH]n(-c4ccc(C(=O)Nc5cccc(O)c5)cc4)c(=O)c3c(-c3cccc(C(F)(F)F)c3)nc21
-- reply 6.85

* * *

Target: B7-1/CD28 (Homo sapiens, UniProt P33681)
Sequence (P33681 35-242 limits assumed): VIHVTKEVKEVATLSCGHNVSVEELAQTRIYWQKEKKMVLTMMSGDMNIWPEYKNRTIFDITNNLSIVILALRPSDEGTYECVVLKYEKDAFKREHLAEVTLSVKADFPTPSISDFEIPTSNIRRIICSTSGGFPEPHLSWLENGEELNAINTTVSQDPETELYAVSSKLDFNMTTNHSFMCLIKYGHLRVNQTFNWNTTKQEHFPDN
Assay: CD28/B7-1 ELISA (B7-1/CD28 binding inhibition)
Settings: CD28-Fc coated wells; B7-1-Fc-biotin/streptavidin-alkaline phosphatase detection complex; 1% DMSO
Please provide measured pIC50 for the entries that follow.
pIC50 here is simply -log10 of the concentration when that concentration is written in mol/L.

-- ask Field: pIC50 (B7-1/CD28 (Homo sapiens, UniProt P33681)). Entry: Cn1ncc2c3[nH]n(-c4cccc(C(=O)N5CCC[C@@H]5C(=O)O)c4)c(=O)c3c(-c3cccc(C(F)(F)F)c3)nc21 [Example 13]
-- reply 7.70

-- ask Field: pIC50 (B7-1/CD28 (Homo sapiens, UniProt P33681)). Entry: Cn1ncc2c3[nH]n(-c4ccc(S(=O)(=O)NCC(=O)O)cc4)c(=O)c3c(-c3cccc(C(F)(F)F)c3)nc21 [Example 107]
-- reply 6.35

-- ask Field: pIC50 (B7-1/CD28 (Homo sapiens, UniProt P33681)). Entry: CCN(CC)C(=O)C1CCCN(C(=O)c2cccc(-n3[nH]c4c(c(-c5cccc(C(F)(F)F)c5)nc5c4cnn5C)c3=O)c2)C1 (stereo not drawn) [Example 58]
-- reply 6.96
